Record set of pIC50 for target or system JAK1-JH1JH2 (Homo sapiens (Human), UniProt P23458).
By convention, pIC50 is the negative base-10 log of a molar concentration.

According to the records, this compound C[Si](C)(C)C1CCC(c2nc3cnc4[nH]ccc4c3n2[C@H]2CC[C@H](CC#N)CC2)CC1 (stereo partly shown) [Ex. 100] displays pIC50 of 7.14

The reported value for CC(C)/C(N)=N/OCc1nc2cnc3[nH]ccc3c2n1[C@H]1CC[C@H](CC#N)CC1 [Ex. 150] in terms of pIC50 is 8.92

Form: compound = N#CC[C@H]1CC[C@H](n2c(CC(=O)NC34CCC(C#N)(CC3)C4)nc3cnc4[nH]ccc4c32)CC1 [Ex. 23] ; pIC50 = 10.00

pIC50 for N#CC[C@H]1CC[C@H](n2c(CC(=O)NCC3(O)CCC3)nc3cnc4[nH]ccc4c32)CC1 [Ex. 34] is 9.70
